Taken from ChEMBL document CHEMBL4699440.

Below, each entry is listed with its recorded MIC.
# Test system: Staphylococcus aureus
# protocol: Antibacterial activity against Staphylococcus aureus by agar dilution method
# Format: functional
property.label: MIC (µg/mL)

> print(dat)
                                 mol.smiles  experimental.result
1  O=C(N/N=C/c1cn(-c2ccccc2)nc1-c1ccccc1)c1cccc(-n2cc(-c3ccccc3)nn2)c1                    8
2  O=C(N/N=C/c1cn(-c2ccccc2)nc1-c1cccc(O)c1)c1cccc(-n2cc(-c3ccccc3)nn2)c1                    2
3  O=C(N/N=C/c1cn(-c2ccccc2)nc1-c1ccc([N+](=O)[O-])cc1)c1cccc(-n2cc(-c3ccccc3)nn2)c1                    2
4  COc1ccc(-c2nn(-c3ccccc3)cc2/C=N/NC(=O)c2cccc(-n3cc(-c4ccccc4)nn3)c2)cc1                    2
